- Test system: ISC-enriched organoids
- Assay Details: Primary screen, 384-well 2.5-D organoid differentiation (ENR+CD, 6 days, Target Selective Inhibitor Library, vs whole-plate median): ATP (CellTiter-Glo 3D, CTG)
- Test Context: dose 10.00 uM
Property: Z.CTG (standard z score)

>>> df
                                   compound  obs_value
0  Cc1cc(C)nc(NS(=O)(=O)c2ccc(NC(=S)NC(=O)COc3ccc(Br)cc3Cl)cc2)n1     −0.247
1  Cl.Cl.Cl.O[C@@H](COc1cccc2ncccc12)CN1CCN([C@@H]2c3ccccc3[C@@H]3[C@H](c4ccccc42)C3(F)F)CC1 [Zosuquidar (LY335979) 3HCl]     −0.461
2  NC(=O)c1cccc(-c2cccc(OC(=O)NC3CCCCC3)c2)c1     −0.051
3  Cc1ccc(NC(=O)C2(c3ccc4c(c3)OC(F)(F)O4)CC2)nc1-c1cccc(C(=O)O)c1      0.076
4  CCOC(=O)N1c2ccc(C(F)(F)F)cc2[C@@H](N(Cc2cc(C(F)(F)F)cc(C(F)(F)F)c2)C(=O)OC)C[C@H]1CC     −0.360
5  CCC(COC(=O)c1cc(OC)c(OC)c(OC)c1)(c1ccccc1)N(C)C (stereo not drawn)     −2.545
6  COc1cc2c(Nc3ccc(NC(=O)c4ccccc4)cc3)ncnc2cc1OCCCN1CCOCC1     −0.574
7  CS(=O)(=O)c1ccc(-c2cnc(N)c(C(=O)Nc3ccccc3)n2)cc1     −2.006
8  CC(C)(C)c1cc(/C=C(\C#N)C(N)=S)cc(C(C)(C)C)c1O     −0.879

---

- Test system: ISC-enriched organoids
- Assay Details: Primary screen, 384-well 2.5-D organoid differentiation (ENR+CD, 6 days): basal lysozyme secretion (LYZ.NS)
- Type: cell-based, murine
- Test Context: strictly standardized mean difference; primary screen; 2nd of the 4 dose lines of the treatment (dose not given)
Property: SSMD.LYZ.NS

                                   compound     property  obs_value
0  CC(C)(C)Cn1c(N)nc2ccc(-c3[nH]c(C(C)(C)C)nc3-c3ccc(F)cc3)nc21  SSMD.LYZ.NS     −0.798
1  O=C(O)Cn1nnc(-c2cc(N3CCC(Oc4cc(F)ccc4Br)CC3)no2)n1  SSMD.LYZ.NS      0.200
2       CCCC(=O)Nc1cccc(NC(=O)c2ccccc2Br)c1  SSMD.LYZ.NS     −0.239
3  COc1cc(-c2ncn(/C=C\C(=O)OC(C)C)n2)cc(C(F)(F)F)c1  SSMD.LYZ.NS      0.872
4  O=C(C[S+]([O-])Cc1ccco1)NC/C=C\COc1cc(CN2CCCCC2)ccn1 (stereo not shown)  SSMD.LYZ.NS      0.064
5  CC(C)(C)c1cc(C(C)(C)C)c(NC(=O)c2c[nH]c3ccccc3c2=O)cc1O  SSMD.LYZ.NS      0.825
6  CCN1CCC[C@H]1CNC(=O)c1cc(S(N)(=O)=O)ccc1OC [Levosulpiride]  SSMD.LYZ.NS      0.226

---

- Tested on: ISC-enriched organoids
- Assay Details: Primary screen, 384-well 2.5-D organoid differentiation (ENR+CD, 6 days): carbachol-induced lysozyme secretion (LYZ.S)
- Assay type: cell-based, murine
- Test Context: Dose 0.40 uM; primary screen, vs plate median
Parameter class (string): assigned from measured Dose.FC.LYZ.S (log 2 fold change). Ranges: I (below 0.07), II (0.07 to below 0.1), III (0.1 or more)

Compound	Target System	Answer Label
CC(C)(C)c1cnc(CSc2cnc(NC(=O)C3CCNCC3)s2)o1 [SNS-032 (BMS-387032)]	ISC-enriched organoids	I
O=C1CC(=O)c2c(Cl)c(Cl)c(Cl)c(Cl)c21 [TCID]	ISC-enriched organoids	I
Cc1nnc(C(=O)NC(C)(C)c2nc(C(=O)NCc3ccc(F)cc3)c(O)c(=O)n2C)o1 [Raltegravir (MK-0518)]	ISC-enriched organoids	I
COc1cc2c(N3CCN(C(=O)Nc4ccc(OC(C)C)cc4)CC3)ncnc2cc1OCCCN1CCCCC1 [Tandutinib (MLN518)]	ISC-enriched organoids	III
CC(C)(C)c1cc(NC(=O)Nc2ccc(-c3cn4c(n3)sc3cc(OCCN5CCOCC5)ccc34)cc2)no1 [Quizartinib (AC220)]	ISC-enriched organoids	II
CNC(=O)c1ccc2cc([C@@]3(O)CCn4cncc43)ccc2c1 [TAK-700 (Orteronel)]	ISC-enriched organoids	II
CO[C@H]1C[C@@H]2CC[C@@H](C)[C@@](O)(O2)C(=O)C(=O)N2CCCC[C@H]2C(=O)O[C@H]([C@H](C)C[C@@H]2CC[C@@H](OC(=O)C(C)(CO)CO)[C@H](OC)C2)CC(=O)[C@H](C)/C=C(\C)[C@@H](O)[C@@H](OC)C(=O)[C@H](C)C[C@H](C)/C=C/C=C/C=C/1C [Temsirolimus (CCI-779, NSC 683864)]	ISC-enriched organoids	III
Cc1cc(Nc2ccc(NC(=O)c3ccc(Nc4ccnc5ccccc45)cc3)cc2)nc(N)n1 [SGI-1027]	ISC-enriched organoids	III

---

- Test system: ISC-enriched organoids
- Assay Details: Primary screen, 384-well 2.5-D organoid differentiation (ENR+CD, 6 days, Target Selective Inhibitor Library, vs whole-plate median): ATP (CellTiter-Glo 3D, CTG)
- Test Context: Dose 2.00 uM; ENR+CD, 6 days; FC vs plate median
Structures can show the parent of a compound that is named as a salt.

Compound	Target System	Dose.FC.CTG (log 2 fold change)
c1ccc(CNc2nc(NCc3ccccc3)c3ccccc3n2)cc1	ISC-enriched organoids	0.004
COc1ccc(C[C@@H](C)NC[C@H](O)c2ccc(O)c(NC=O)c2)cc1.COc1ccc(C[C@@H](C)NC[C@H](O)c2ccc(O)c(NC=O)c2)cc1.O=C(O)/C=C/C(=O)O [Formoterol Hemifumarate]	ISC-enriched organoids	0.242
CC(C)(C)c1nc(-c2cccc(NS(=O)(=O)c3c(F)cccc3F)c2F)c(-c2ccnc(N)n2)s1	ISC-enriched organoids	−0.279
COc1cccc2c1C(=O)c1c(O)c3c(c(O)c1C2=O)C[C@@](O)(C(C)=O)C[C@@H]3O[C@H]1C[C@H](N)[C@H](O)[C@H](C)O1 [Daunorubicin HCl]	ISC-enriched organoids	−0.817
CCn1c2ccccc2c2cc(Nc3ccnc(NCCCN4CCOCC4)n3)ccc21	ISC-enriched organoids	0.088
CCOC(=O)c1cncn1[C@H](C)c1ccccc1 [Etomidate]	ISC-enriched organoids	0.163
Cc1[nH]c2ccccc2c1CCNC(=O)c1cccs1	ISC-enriched organoids	−0.201

---

- Test system: ISC-enriched organoids
- Assay Details: Primary screen, 384-well 2.5-D organoid differentiation (ENR+CD, 6 days): carbachol-induced lysozyme secretion (LYZ.S)
- Type: cell-based, murine
- Test Context: dose 0.40 uM (2nd of 4 lines per treatment; dose not printed in this part)
Lab note: cut-off is 0.3. Strictly less in SSMD.LYZ.S_Rep (strictly standardized mean difference) is met. Exactly 0.3 or more is not met.

                                   molecule  answer_label
0  CC1(C)CCC(CN2CCN(c3ccc(C(=O)NS(=O)(=O)c4ccc(NCC5CCOCC5)c([N+](=O)[O-])c4)c(Oc4cnc5[nH]ccc5c4)c3)CC2)=C(c2ccc(Cl)cc2)C1       not met
1  CN1CCc2cc3c(cc2[C@H]1[C@@H]1OC(=O)c2c1ccc1c2OCO1)OCO3 [(+)-Bicuculline]           met
2  C=CCNC1=C2C[C@@H](C)C[C@H](OC)[C@H](O)[C@@H](C)/C=C(\C)[C@H](OC(N)=O)[C@@H](OC)/C=C\C=C(/C)C(=O)NC(=CC1=O)C2=O           met
3  CC(C)N(CC[C@H](c1ccccc1)c1cc(CO)ccc1O)C(C)C [5-hydroxymethyl Tolterodine (PNU 200577, 5-HMT, 5-HM)]           met
4  O=C(O)C(Cc1ccccc1[N+](=O)[O-])=NNc1nc(-c2ccc(Cl)c(Cl)c2)cs1 (mixture of isomers)       not met

---

- Test system: ISC-enriched organoids
- Assay Details: Primary screen, 384-well 2.5-D organoid differentiation (ENR+CD, 6 days): basal lysozyme secretion (LYZ.NS)
- Assay type: cell-based, murine
- Test Context: Dose 10.00 uM; primary screen, FC vs plate median
List of Dose.FC.LYZ.NS values.
Property: Dose.FC.LYZ.NS (log 2 fold change)

In [3]: df
Out[3]:
                            compound_smiles        property  obs_value
0  CS(=O)(=O)c1cccc(CNc2nc(Nc3ccc4c(c3)CCC(=O)N4)ncc2C(F)(F)F)c1  Dose.FC.LYZ.NS     −0.250
1  COc1cc(-c2ncn(/C=C\C(=O)OC(C)C)n2)cc(C(F)(F)F)c1  Dose.FC.LYZ.NS     −0.085
2  Cc1[nH]c2ccccc2c1CCNCc1ccc(/C=C/C(=O)NO)cc1  Dose.FC.LYZ.NS     −0.217

Data origin: patent US20230398130A1
